Ref: patent US20250170130A1

Biological target: MycC (Homo sapiens)
Construct: endogenous in cells; host or cells: L363
Experiment: Degradation of MycC protein in L363 cells, JESS/Western blot of lysates
Assay type: cell-based
Conditions: L-363, 24 h, L-363 cells, 24 h, 3 μM; read-out: % Degradation of MycC (L-363) 24 h, 3 μM
property.measured: Dmax at 3 µM

[
  {
    "compound": "CN(C)[C@@H]1CCN(c2nccc(Nc3cc(C4CC4)[nH]n3)n2)C1 [Compound 17]",
    "test.target": "MycC (Homo sapiens)",
    "Dmax at 3 µM": "< 20%"
  },
  {
    "compound": "NC[C@@H]1CN(c2nccc(Nc3cc(C4CCCC4)[nH]n3)n2)CCO1 [Compound 116]",
    "test.target": "MycC (Homo sapiens)",
    "Dmax at 3 µM": "80 to 100%"
  }
]

Each of the following entries comes with a recorded value; kindly state Dmax at 3 µM for each.
1. NC[C@H]1CN(c2nccc(Nc3cc(C4CCCC4)[nH]n3)n2)CCO1 [Compound 187]
2. NC[C@H]1CN(c2nccc(Nc3cc(C4CC4)[nH]n3)n2)C[C@H]1F [Compound 122-2]
3. CNCC12CC(C1)N(c1nccc(Nc3cc(C4CCCC4)[nH]n3)n1)C2 [Compound 31]

RESULT:
1: 20 to 49%; 2: 80 to 100%; 3: 80 to 100%

---

Biological target: MycC (Homo sapiens, UniProt P01106)
Construct: endogenous in cells; host or cells: L363
Sequence (P01106 whole entry): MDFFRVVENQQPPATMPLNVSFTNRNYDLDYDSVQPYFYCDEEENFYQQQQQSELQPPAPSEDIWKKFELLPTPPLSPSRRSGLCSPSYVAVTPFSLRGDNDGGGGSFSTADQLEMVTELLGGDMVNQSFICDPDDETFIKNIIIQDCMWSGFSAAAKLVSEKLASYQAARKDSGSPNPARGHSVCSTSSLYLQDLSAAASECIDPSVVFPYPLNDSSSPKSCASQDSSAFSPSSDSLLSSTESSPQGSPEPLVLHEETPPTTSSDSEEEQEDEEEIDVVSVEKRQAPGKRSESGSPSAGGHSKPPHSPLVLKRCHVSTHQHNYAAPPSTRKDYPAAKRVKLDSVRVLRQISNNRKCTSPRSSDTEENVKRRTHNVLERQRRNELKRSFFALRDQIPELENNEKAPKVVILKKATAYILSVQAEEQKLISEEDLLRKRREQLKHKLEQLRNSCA
Assay: Degradation of MycC protein in L363 cells, JESS/Western blot of lysates
Format: cell-based
Settings: L-363, 24 h, L-363 cells, 24 h, 6 μM; read-out: % Degradation of MycC (L-363) 24 h, 6 μM
Method: For L363 cells (suspension), 1E6 cells were plated into each well of a 6 well plate. For SK-N-BE(2) cells (adherent), 5E5 cells were plated into each well of a 6 well dish. […] All compounds were diluted to 10 mM in DMSO. […] Once an appropriate lysate concentration and antibody concentration was determined, samples were screened in the JESS technology (Protein Simple, San Jose, CA—https://www.proteinsimple.com/jess.html). […]
Kindly supply the reported Dmax at 6 µM values for the records listed here.

[
  {
    "compound": "c1cc(Nc2cc(C3CCCC3)[nH]n2)nc(N2CC3(CN4CCCC4)CC2C3)n1",
    "result": "50 to 79%"
  },
  {
    "compound": "NCC12CC(C1)N(c1nccc(Nc3cc(C4CCCC4)[nH]n3)n1)C2",
    "result": "80 to 100%"
  },
  {
    "compound": "CN(C)C[C@H]1CCN(c2nccc(Nc3cc(C4CCCC4)[nH]n3)n2)C1",
    "result": "< 20%"
  },
  {
    "compound": "CN(C)C[C@H]1CCN(c2nccc(Nc3cc(C4CC4)[nH]n3)n2)C1 (stereo in doubt)",
    "result": "< 20%"
  },
  {
    "compound": "NC[C@H]1CN(c2nccc(Nc3cc(C4CCCC4)[nH]n3)n2)C[C@H]1F",
    "result": "80 to 100%"
  }
]

Each of the following entries comes with a recorded value; kindly state Dmax at 6 µM for each.
1. CC1(NCC23CC(C2)N(c2nccc(Nc4cc(C5CCCC5)[nH]n4)n2)C3)COC1
2. CN(C)CCCN(C)c1nccc(Nc2cc(C3CC3)[nH]n2)n1
3. CN1CC2(CCN(c3nccc(Nc4cc(C5CCCC5)[nH]n4)n3)CC2)C1
4. CN1CC2(CCN(c3nccc(Nc4cc(C5CC5)[nH]n4)n3)C2)C1
5. c1cc(Nc2cc(C3CC3)[nH]n2)nc(N2CC(C3CNC3)C2)n1
6. CN1CC2(C1)CN(c1nccc(Nc3cc(C4CC4)[nH]n3)n1)C2
7. c1cc(Nc2cc(C3CC3)[nH]n2)nc(N2C[C@H]3CNC[C@@H]3C2)n1 (racemic)

RESULT:
80 to 100%
20 to 49%
80 to 100%
80 to 100%
20 to 49%
80 to 100%
50 to 79%

---

Molecular target: MycN (Homo sapiens, UniProt P04198)
Construct: endogenous in cells; host or cells: SK-N-BE(2)
Sequence (P04198 whole entry): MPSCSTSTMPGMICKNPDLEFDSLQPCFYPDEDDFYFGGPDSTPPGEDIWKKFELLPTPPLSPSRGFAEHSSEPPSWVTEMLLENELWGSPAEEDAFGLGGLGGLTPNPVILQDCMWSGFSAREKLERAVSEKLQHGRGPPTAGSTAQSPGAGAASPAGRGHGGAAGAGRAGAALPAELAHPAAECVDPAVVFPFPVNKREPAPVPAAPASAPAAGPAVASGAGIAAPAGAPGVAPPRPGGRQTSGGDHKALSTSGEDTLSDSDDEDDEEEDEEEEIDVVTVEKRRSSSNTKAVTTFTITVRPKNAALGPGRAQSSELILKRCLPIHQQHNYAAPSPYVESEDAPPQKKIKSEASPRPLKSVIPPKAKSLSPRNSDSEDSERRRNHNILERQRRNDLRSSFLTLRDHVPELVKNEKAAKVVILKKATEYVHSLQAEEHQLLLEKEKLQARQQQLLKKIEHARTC
Test: Degradation of MycN protein in SK-N-BE(2) cells, JESS/Western blot of lysates
Type: cell-based
Settings: SKNBE2, 24 h, SKNBE2 cells, 24 h, 6 μM; read-out: % Degradation of MycN (SKNBE2) 24 h, 6 μM
property.measured: Dmax at 6 µM

Observe how each entry below is paired with its result.
[
  {
    "compound": "CN(C)C[C@H]1CCN(c2nccc(Nc3cc(C4CCCC4)[nH]n3)n2)C1",
    "Dmax at 6 µM": "50 to 79%"
  },
  {
    "compound": "c1cc(Nc2cc(C3CC3)[nH]n2)nc(N2CC3(CCCNC3)C2)n1",
    "Dmax at 6 µM": "80 to 100%"
  },
  {
    "compound": "CNC[C@@H]1CCCN(c2nccc(Nc3cc(C4CC4)[nH]n3)n2)C1",
    "Dmax at 6 µM": "80 to 100%"
  },
  {
    "compound": "NC[C@@H]1CN(c2nccc(Nc3cc(C4CCCC4)[nH]n3)n2)C[C@@H]1F",
    "Dmax at 6 µM": "80 to 100%"
  }
]

Each of the following entries comes with a recorded value; kindly state Dmax at 6 µM for each.
1. CNCC12CC(C1)N(c1nccc(Nc3cc(C4CCC4)[nH]n3)n1)C2
2. NCC1CN(c2nccc(Nc3cc(C4CCCC4)[nH]n3)n2)CC1(F)F (centres unmarked)
3. CNC[C@H]1CN(c2nccc(Nc3cc(C4CC4)[nH]n3)n2)C[C@H]1F
4. O=S1(=O)CCN(CC23CC(C2)N(c2nccc(Nc4cc(C5CCCC5)[nH]n4)n2)C3)CC1
5. c1cc(Nc2cc(C3CC3)[nH]n2)nc(N2C[C@H]3CNC[C@H]3C2)n1

RESULT:
["80 to 100%", "80 to 100%", "80 to 100%", "80 to 100%", "80 to 100%"]

Each of the following entries comes with a recorded value; kindly state Dmax at 6 µM for each.
1. CNCCCNc1nccc(Nc2cc(C3CC3)[nH]n2)n1
2. NC[C@@H]1CN(c2nccc(Nc3cc(C4CCCC4)[nH]n3)n2)CCO1
3. CN1CC2(CCN(c3nccc(Nc4cc(C5CCCC5)[nH]n4)n3)C2)C1
4. CNC[C@H]1CN(c2nccc(Nc3cc(C4CCCC4)[nH]n3)n2)C[C@H]1F
5. NC[C@H]1CCCN(c2nccc(Nc3cc(C4CCCC4)[nH]n3)n2)C1
6. NC[C@H]1CCCN(c2nccc(Nc3cc(C4CC4)[nH]n3)n2)C1
7. CS(=O)(=O)CCCNCC12CC(C1)N(c1nccc(Nc3cc(C4CCCC4)[nH]n3)n1)C2
8. CN(C)C[C@@H]1CCN(c2nccc(Nc3cc(C4CC4)[nH]n3)n2)C1 (stereo in doubt)

RESULT:
< 20%
80 to 100%
50 to 79%
80 to 100%
80 to 100%
80 to 100%
80 to 100%
50 to 79%

---

Target: MycN (Homo sapiens, UniProt P04198)
Construct: endogenous in cells; host or cells: SK-N-BE(2)
Assay: Degradation of MycN protein in SK-N-BE(2) cells, JESS/Western blot of lysates
Format: cell-based
Conditions: SKNBE2, 24 h, SKNBE2 cells, 24 h, 3 μM; read-out: % Degradation of MycN (SKNBE2) 24 h, 3 μM
property.measured: Dmax at 3 µM

[
  {
    "compound": "NCC1CN(c2nccc(Nc3cc(C4CCCC4)[nH]n3)n2)CC1(F)F (stereo not drawn)",
    "Dmax at 3 µM": "50 to 79%"
  },
  {
    "compound": "CN1CCC2(C1)CN(c1nccc(Nc3cc(C4CC4)[nH]n3)n1)C2",
    "Dmax at 3 µM": "20 to 49%"
  },
  {
    "compound": "NC[C@@H]1CCCN(c2nccc(Nc3cc(C4CCCC4)[nH]n3)n2)C1",
    "Dmax at 3 µM": "50 to 79%"
  }
]

Each of the following entries comes with a recorded value; kindly state Dmax at 3 µM for each.
1. CN1CCCC2(C1)CN(c1nccc(Nc3cc(C4CC4)[nH]n3)n1)C2
2. CN1CC2(CCN(c3nccc(Nc4cc(C5CCCC5)[nH]n4)n3)C2)C1
3. CN1C[C@H]2CN(c3nccc(Nc4cc(C5CC5)[nH]n4)n3)C[C@H]21
4. NC[C@@H]1CN(c2nccc(Nc3cc(C4CCCC4)[nH]n3)n2)CCO1
5. CNCC12CC(C1)N(c1nccc(Nc3cc(C4CCC4)[nH]n3)n1)C2
6. CN1CC(C2CN(c3nccc(Nc4cc(C5CCCC5)[nH]n4)n3)C2)C1

RESULT:
["20 to 49%", "20 to 49%", "< 20%", "80 to 100%", "80 to 100%", "20 to 49%"]
